target: Human V1b receptor (Homo sapiens, UniProt P47901); experiment: Measurement of V1b receptor antagonistic activity (AVP-induced fluorescence, Fluo-4, FDSS); type: cell-based; design: expressed in transfected cells
Give IC50 for every item shown.
One number for each entry, in nM.

CC(C)NC(=O)Cn1c(-c2cccc(Cl)c2)nn(-c2ccc(CCN3C4CCC3COC4)cc2)c1=O [Aa-10] : 20

--- query ---
I'd like to know its IC50. The compound in question is CC(C)NC(=O)Cn1c(-c2ccc(F)c(Cl)c2)nn(-c2ccc(CCN3C4CCC3CC(O)C4)cc2)c1=O (centres unmarked) [Da-6] 12

###

target: Human V1b receptor (Homo sapiens); experiment: Binding test for V1b receptor ([3H]AVP displacement, crude membrane preparation); parameters: expressed in transfected cells; host or cells: 293FT cells (Invitrogen), transient expression; crude membrane preparation; settings: [3H]AVP 0.4 to 1 nmol/L; membranes of 293FT cells transiently expressing human V1b receptor; room temperature, 60 minutes
Hi there, I'd appreciate the recorded IC50 for every entry that follows.
Give bare numbers, in nM.

CC(C)NC(=O)Cn1c(-c2ccccc2)nn(-c2ccc(CCN3CCOCC3)cc2)c1=O : 114

Lab note: each compound below needs its IC50 filled in.
1. COc1cccc(-c2nn(-c3ccc(CCN4C5CCC4COC5)cn3)c(=O)n2CC(=O)NC(C)(C)C)c1
2. CC(C)NC(=O)Cn1c(-c2ccc(F)c(Cl)c2)nn(-c2ccc(CCN3C4CCC3COC4)cc2)c1=O
3. CC(NC(=O)Cn1c(-c2cccc(Cl)c2)nn(-c2ccc(CCN3CCOCC3)cc2)c1=O)C(F)(F)F (stereo not drawn)
4. CC(C)NC(=O)Cn1c(-c2cccc(Cl)c2)nn(-c2ccc(CC(C)N3CCOCC3)cn2)c1=O (stereo not drawn)
5. CC(C)NC(=O)Cn1c(-c2cccc(Cl)c2)nn(-c2ccc(CCN3CC4CCC(C3)O4)cc2)c1=O
6. COc1cc(-c2nn(-c3ccc(CCN4C5CCC4CC(O)C5)cc3)c(=O)n2CC(=O)NC(C)C)ccc1F (stereo not drawn)

[3.6, 2.5, 15, 5.1, 18, 6]

Would you mind listing IC50 for each of the following compounds?
1. CC(C)NC(=O)Cn1c(-c2cccc(Cl)c2)nn(-c2ccc(CCN3C4CCC3CC(O)C4)cc2)c1=O (stereo not drawn)
2. CC(C)NC(=O)Cn1c(-c2cccc(Cl)c2)nn(-c2ccc(CCN3CCCCC3)cc2)c1=O
3. O=C(Cn1c(-c2cccc(Cl)c2)nn(-c2ccc(CCN3CCOCC3)cc2)c1=O)NCC1CC1
4. COc1cc(-c2nn(-c3ccc(CCN4C5CCC4COC5)cc3)c(=O)n2CC(=O)NC(C)C)ccc1F
5. CC(C)NC(=O)Cn1c(-c2cccc(Cl)c2)nn(-c2ccc(CCN3CCC(CO)C3)cc2)c1=O (stereo not drawn)
6. CC(C)NC(=O)Cn1c(-c2ccc(F)c(Cl)c2)nn(-c2ccc(CCN3CCOCC3)cn2)c1=O

[4.1, 37, 62, 4.4, 34, 7.1]

Could you tell me IC50 for each of these compounds? They are listed below.
1. CC(C)NC(=O)Cn1c(-c2cccc(Cl)c2)nn(-c2ccc(CCN3CCC(O)C3)cc2)c1=O (stereo not drawn)
2. CC(C)NC(=O)Cn1c(-c2ccc(F)c(Cl)c2)nn(-c2ccc(CCN3CC4(COC4)C3)cn2)c1=O
3. CC(C)NC(=O)Cn1c(-c2cccc(Cl)c2)nn(-c2ccc(CC(C)N3C4CCC3COC4)cn2)c1=O (single isomer, unassigned; (+)) [Ad-19-2]
4. COc1cccc(-c2nn(-c3ccc(CC(C)N4C5CCC4COC5)cc3)c(=O)n2CC(=O)NC(C)(C)C)c1 (stereo not drawn)
5. COc1cc(-c2nn(-c3ccc(CCN4CCCCC4)cc3)c(=O)n2CC(=O)NC(C)C)ccc1F
6. COc1cc(-c2nn(-c3ccc(CCN4C5CCC4CC(O)C5)cn3)c(=O)n2CC(=O)NC(C)C)ccc1F (stereo not drawn)
7. CC(C)NC(=O)Cn1c(-c2cccc(Cl)c2)nn(-c2ccc(CCN3C4CCC3COC4)c(F)c2)c1=O

1: 56; 2: 10; 3: 17; 4: 0.21; 5: 26; 6: 8.6; 7: 1.5

###

target: Human V1b receptor (Homo sapiens); assay: Binding test for V1b receptor ([3H]AVP displacement, crude membrane preparation); parameters: expressed in transfected cells; host or cells: 293FT cells (Invitrogen), transient expression; crude membrane preparation; settings: [3H]AVP 0.4 to 1 nmol/L; membranes of 293FT cells transiently expressing human V1b receptor; room temperature, 60 minutes
Where a name gives a salt, the structure may show the parent alone.
Answer each item with its documented IC50.

CCCC1CCN(CCc2ccc(-n3nc(-c4ccc(F)c(OC)c4)n(CC(=O)NC(C)C)c3=O)cc2)CC1 : 100 to 1000 nM

# per-item lookup of IC50; items listed below
1. COc1cc(-c2nn(-c3ccc(CCN4CCN(C)CC4)cc3)c(=O)n2CC(=O)NC(C)C)ccc1F [Ca-25, trifluoroacetate]
2. COc1cc(-c2nn(-c3ccc(CCN4CCC(C)CC4)cc3)c(=O)n2CC(=O)NC(C)C)ccc1F
3. CC(C)NC(=O)Cn1c(-c2cccc(Cl)c2)nn(-c2ccc(CCN)cc2)c1=O
4. COc1cccc(-c2nn(-c3ccc(CCN4CCOCC4)cn3)c(=O)n2CC(=O)NC(C)(C)C)c1
5. COc1cc(-c2nn(-c3ccc(CC(C)N4C5CCC4COC5)cc3)c(=O)n2CC(=O)NC(C)C)ccc1F (stereo not shown)
6. COc1cc(-n2nc(-c3cccc(Cl)c3)n(CC(=O)NC(C)C)c2=O)ccc1CCN1CCOCC1
7. COc1cc(-n2nc(-c3cccc(Cl)c3)n(CC(=O)NC(C)C)c2=O)ccc1CCN1C2CCC1COC2

["100 to 1000 nM", "10 to 100 nM", "365 nM", "4.1 nM", "0.51 nM", "2.3 nM", "1.3 nM"]

Quick one: give me IC50 for each item below, same order please.
1. CC(CO)NC(=O)Cn1c(-c2cccc(Cl)c2)nn(-c2ccc(CCN3CCOCC3)cc2)c1=O (racemic)
2. CC(C)(C)NC(=O)Cn1c(-c2cccc(Cl)c2)nn(-c2ccc(CCN3CCOCC3)cn2)c1=O
3. COc1cc(-c2nn(-c3ccc(CCN4C(C)COCC4C)cc3)c(=O)n2CC(=O)NC(C)C)ccc1F (stereo not shown) [Ca-21, trifluoroacetate]
4. CC(C)NC(=O)Cn1c(-c2ccc(F)c(Cl)c2)nn(-c2ccc(CCN3CCOCC3)cc2)c1=O
5. CC(C)NC(=O)Cn1c(-c2ccc(F)c(Cl)c2)nn(-c2ccc(CCN3CCCCC3)cc2)c1=O
6. COc1cc(-c2nn(-c3ccc(CCN4CCC(C#N)CC4)cc3)c(=O)n2CC(=O)NC(C)C)ccc1F

1. 96 nM
2. 3.5 nM
3. 10 to 100 nM
4. 4.3 nM
5. 17 nM
6. 100 to 1000 nM

Go through the items and report each one's IC50.
1. CC(C)NC(=O)Cn1c(-c2cccc(Cl)c2)nn(-c2ccc(CC(C)N3CCOCC3)cc2)c1=O (stereo not shown)
2. COc1cc(-c2nn(-c3ccc(CC(C)N4C5CCC4COC5)cn3)c(=O)n2CC(=O)NC(C)C)ccc1F (stereo not shown)

["2.9 nM", "0.55 nM"]

###

Target: Human V1b receptor (Homo sapiens)
Sequence (P47901 1-424): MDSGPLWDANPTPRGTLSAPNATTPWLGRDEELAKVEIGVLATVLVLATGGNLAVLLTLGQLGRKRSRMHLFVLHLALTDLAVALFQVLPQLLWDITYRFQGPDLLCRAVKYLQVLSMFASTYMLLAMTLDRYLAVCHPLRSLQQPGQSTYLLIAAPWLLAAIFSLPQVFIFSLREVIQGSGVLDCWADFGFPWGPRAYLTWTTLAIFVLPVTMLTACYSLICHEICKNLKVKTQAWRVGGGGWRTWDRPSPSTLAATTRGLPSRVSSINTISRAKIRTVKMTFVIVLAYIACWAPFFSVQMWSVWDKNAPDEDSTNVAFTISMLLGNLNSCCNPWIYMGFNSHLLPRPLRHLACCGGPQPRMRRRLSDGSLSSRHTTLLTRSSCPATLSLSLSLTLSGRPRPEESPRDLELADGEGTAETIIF
Test: Binding test for V1b receptor ([3H]AVP displacement, crude membrane preparation)
Parameters: expressed in transfected cells; host or cells: 293FT cells (Invitrogen), transient expression; crude membrane preparation
Conditions: [3H]AVP 0.4 to 1 nmol/L; membranes of 293FT cells transiently expressing human V1b receptor; room temperature, 60 minutes
Where a name gives a salt, the structure may show the parent alone.
READOUT_NAME: IC50

Consider the following illustrative entries.
CC(C)NC(=O)Cn1c(-c2cccc(Cl)c2)nn(-c2ccc(CC(C)N3C4CCC3COC4)cn2)c1=O (stereo not shown) [Ad-16] : 0.92 nM
CC(C)NC(=O)Cn1c(-c2ccc(F)c(Cl)c2)nn(-c2ccc(CCN3C4CCC3CC(O)C4)cc2)c1=O (stereo not shown) : 4.4 nM

Each molecule below has a recorded value; state its IC50.
1. COc1cc(-c2nn(-c3ccc(CCN4CC=CCC4)cc3)c(=O)n2CC(=O)NC(C)C)ccc1F
2. COc1cc(-c2nn(-c3ccc(CCN4CCC(F)CC4)cc3)c(=O)n2CC(=O)NC(C)C)ccc1F [Ca-16, trifluoroacetate]

["10 to 100 nM", "10 to 100 nM"]
